The measurements presented in this section are drawn from patent US20040018941A1.

- System: barnyardgrass (Echinochloa crus-galli, ECHCG)
- Experiment Notes: Pre-emerge herbicidal activity, greenhouse screen, ECHCG
- Format: in vivo
- Applied Conditions: 63 g ai/ha, rating 0-100 (0 no damage, 100 complete death), 14 days after application
Attribute Measured: Pre-emerge Herbicidal Activity ECHCG

The examples below pair each entry with its known result.
## Input What Pre-emerge Herbicidal Activity ECHCG value was documented for this compound, "Cn1c(C(F)(F)F)cc(=O)n(-c2ccc(Cl)c3nc(C(C)(C)C)oc23)c1=S" ?
## Output 100

## Input What Pre-emerge Herbicidal Activity ECHCG value was documented for this compound, "Cc1nc2c(Cl)cc(F)c(-n3c(=O)cc(C(F)(F)F)n(C)c3=S)c2o1" ?
## Output 100

More entries:
## Input What Pre-emerge Herbicidal Activity ECHCG value was documented for this compound, "Cc1cc2c(-n3c(=O)cc(C(F)(F)F)n(C)c3=S)c(F)cc(Cl)c2o1" ?
## Output 99

## Input What Pre-emerge Herbicidal Activity ECHCG value was documented for this compound, "Cn1c(C(F)(F)F)cc(=O)n(-c2c(F)cc(Cl)c3ncoc23)c1=S" ?
## Output 100

## Input What Pre-emerge Herbicidal Activity ECHCG value was documented for this compound, "Cn1c(C(F)(F)F)cc(=O)n(-c2c(F)ccc3nc(C(C)(C)C)oc23)c1=S" ?
## Output 100

## Input What Pre-emerge Herbicidal Activity ECHCG value was documented for this compound, "Cn1c(C(F)(F)F)cc(=O)n(-c2c(F)cc(Cl)c3nc(C(C)(C)C)oc23)c1=S" ?
## Output 100

###

- Test system: green foxtail (Setaria viridis, SETVI)
- Experiment Notes: Post-emerge herbicidal activity, greenhouse screen, SETVI
- Format: in vivo
- Applied Conditions: 63 g ai/ha, rating 0-100 (0 no damage, 100 complete death), 14 days after application
Post-emerge Herbicidal Activity SETVI listing for selected compounds.
Note: the reply should be a number with no unit written.

The examples below pair each entry with its known result.
## Input What Post-emerge Herbicidal Activity SETVI value was documented for this compound, Cc1nc2c(Cl)cc(F)c(-n3c(=O)cc(C(F)(F)F)n(C)c3=S)c2o1 [Compound 1-2] ?
## Output 100

## Input What Post-emerge Herbicidal Activity SETVI value was documented for this compound, Cc1cc2c(-n3c(=O)cc(C(F)(F)F)n(C)c3=S)c(F)cc(Cl)c2o1 [Compound 2-2] ?
## Output 100

## Input What Post-emerge Herbicidal Activity SETVI value was documented for this compound, Cn1c(C(F)(F)F)cc(=O)n(-c2ccc(Cl)c3nc(C(C)(C)C)oc23)c1=S [Compound 1-4] ?
## Output 50

## Input What Post-emerge Herbicidal Activity SETVI value was documented for this compound, Cn1c(C(F)(F)F)cc(=O)n(-c2c(F)cc(Cl)c3ncoc23)c1=S [Compound 1-1] ?
## Output 100

More entries:
## Input What Post-emerge Herbicidal Activity SETVI value was documented for this compound, Cn1c(C(F)(F)F)cc(=O)n(-c2c(F)ccc3nc(C(C)(C)C)oc23)c1=S [Compound 1-5] ?
## Output 80

## Input What Post-emerge Herbicidal Activity SETVI value was documented for this compound, Cn1c(C(F)(F)F)cc(=O)n(-c2c(F)cc(Cl)c3nc(C(C)(C)C)oc23)c1=S [Compound 1-3] ?
## Output 99
